# protocol details: Clearance in mouse at 5 mg/kg, iv
# Assay type: ADME, organism-based
# Design: dose 5 mg/kg, route intravenous
# details: in vivo
quantity name: clearance (mL/min/kg)

INSERT INTO results (smiles_entry, value) VALUES
  ('Cc1ccc([C@H]2C[C@@H](C(F)F)n3ncc(C(=O)NCc4ccc(F)cc4)c3N2)nc1', 24),
  ('O=C(NCc1ccc(F)cc1)c1cnn2c1N[C@@H](c1ccc(OC3COC3)cc1)C[C@H]2C(F)(F)F', 9.9),
  ('Cc1ccc([C@H]2C[C@@H](C(F)(F)F)n3ncc(C(=O)NCc4ccc(F)cc4)c3N2)cc1', 31),
  ('Cc1ccc([C@H]2C[C@@H](C(F)(F)F)n3ncc(C(=O)NCc4ccc(F)cc4)c3N2)nc1', 38);
